Tested on: NCI-H2228
Test: Antiproliferative activity against human NCI-H2228 cells assessed as inhibition of cell growth incubated for 3 to 5 days by MTT assay
Assay type: functional, cell-based
pIC50: −log10 of the molar value.
Known pIC50 of a selection of compounds

[
  {
    "Compound": "CC(=O)c1c(C)c2cnc(Nc3ccc(N4CCN(CC(=O)NCCSSCCN(CC(=O)NCCNc5cccc6c5C(=O)N(C5CCC(=O)NC5=O)C6=O)C(=O)CCC(=O)N5CCC(c6cc(OC(C)C)c(Nc7ncc(Cl)c(Nc8ccccc8S(=O)(=O)C(C)C)n7)cc6C)CC5)CC4)cn3)nc2n(C2CCCC2)c1=O (stereo not drawn)",
    "Endpoint value": "< 4.30"
  }
]

Exercise: # input compound: CC(=O)c1c(C)c2cnc(Nc3ccc(N4CCN(CC(=O)NCCSSCCN(CC(=O)Nc5cccc6c5C(=O)N(C5CCC(=O)NC5=O)C6=O)C(=O)CCCCCCC(=O)N5CCC(c6cc(OC(C)C)c(Nc7ncc(Cl)c(Nc8ccccc8S(=O)(=O)C(C)C)n7)cc6C)CC5)CC4)cn3)nc2n(C2CCCC2)c1=O (stereo not drawn) ; wanted: its pIC50
Key: < 4.30

Exercise: # input compound: CC(=O)c1c(C)c2cnc(Nc3ccc(N4CCN(CC(=O)NCCSSCCN(CC(=O)Nc5cccc6c5C(=O)N(C5CCC(=O)NC5=O)C6=O)C(=O)CCCCCCCCCCC(=O)N5CCC(c6cc(OC(C)C)c(Nc7ncc(Cl)c(Nc8ccccc8S(=O)(=O)C(C)C)n7)cc6C)CC5)CC4)cn3)nc2n(C2CCCC2)c1=O (stereo not drawn) ; wanted: its pIC50
Key: < 4.30
